Measured values drawn from patent USRE46585 for this set.

Biological target: T1, FcRn-p3 fusion protein (human, UniProt P55899 24-297; P61769 21-119)
T1 construct: baculovirus expressed; coated on ELISA wells; not shown: amino terminal part of bacteriophage p3 protein and CVDE protein
T1 sequence (P55899 24-297, chain 1 of 2): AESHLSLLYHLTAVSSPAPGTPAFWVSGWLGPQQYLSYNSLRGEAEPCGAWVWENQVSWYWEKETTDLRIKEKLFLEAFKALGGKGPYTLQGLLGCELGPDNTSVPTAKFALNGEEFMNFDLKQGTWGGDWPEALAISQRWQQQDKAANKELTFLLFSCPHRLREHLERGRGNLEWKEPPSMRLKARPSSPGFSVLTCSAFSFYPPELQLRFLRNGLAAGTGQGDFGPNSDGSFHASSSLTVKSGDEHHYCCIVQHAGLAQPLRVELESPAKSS
T1 sequence (P61769 21-119, chain 2 of 2): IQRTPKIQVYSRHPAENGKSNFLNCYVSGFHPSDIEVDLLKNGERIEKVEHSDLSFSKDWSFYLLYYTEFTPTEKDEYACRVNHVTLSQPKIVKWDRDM
Test: phage ELISA pH6
assay readout: Ratio/Fc-H (fold)
State the answer as a number, implicitly in fold.

{"columns": ["binder", "experimental result"],
 "data": [
  ["C3A_15 (other, EU numbering) CPPCPAPELLGGPSVFLFPPKPKDTLMISRTPEVTCVVEDVSHEDPEVKFNWYVDGVEVHNAKTKPREEQYNSTYRVVSVLAVLHQDWLNGKEYKCKVSNKALPAPIEKTISKAKGQPREPQVYTLPPSRDELTKNQVSLTCLVKGFYPSDIVVEWESNGQPENNYKTTPPVLDSDGSFFLYSKLTVDKSRWQQGNVFSCSVMHEALHNHYTQKSLSLSPGK", 1.9],
  ["C5A_09 (other, EU numbering) CPPCPAPELLGGPSVLLFPPKPKDTLMISRTPEVTCVVEDVSHEDPEVKFNWYVDGVEVHNAKTKPREEQYNSTYRVVSVLPVLHQDWLNGKEYKCKVSNKALPAPIEKTISKAKGQPREPQVYTLPPSRDELTKNQVSLTCLVKGFYPSDIVVEWESNGQPENNYKTTPPVLDSDGSFFLYSKLTVDKSRWQQGNVFSCSVMHEALHSHYTQKSLSLSPGK", 4.8]
]}

Q) # return recorded Ratio/Fc-H for entry T7A_49 (other, EU numbering) CPPCTAPELLGGPSVFLFPPKPKDTLMISRTPEVTCVVVDVSHEDPEVKFNWYVDGVEVHNAKTKPREEQYNSTYRVVSVLTVLHQDWLDGKEYECKVSNKALPAPIEKTISKAKGQPREPQVYTLPPSRDELTKNRVSLTCLVKGFYPSDIAVEWESNGQPENNYKTTPPVLDSDGSFFLYSKLTVDKSRWQQGNVFSCSVMHEALHYHYTQKSLSLSPGK
A) 3.6

Q) # return recorded Ratio/Fc-H for entry T4A_42 (other, EU numbering) GPPCPAPELLGGPSVFLFPPKPKDTLMISRTPEVTCVVVDVSHEDPEVKFNWYVDGVEVHNAKTKPREEQYNSTYRVVSVLTVLHQDWLDGKEYKCKVSNKALPAPIEKTISKAKGQPREPQVYTLPPSRDELTKNRVSLTCLVKGFYPSDIAVEWESNGQPENNYKTTPPVLDSDGSFFLYSKLTVDKSRWQQGNVFSCSVMHEALHYHYTQKSLSLSPGK
A) 4.6

Q) # return recorded Ratio/Fc-H for entry T3A_01 (other, EU numbering) CPPCPAPELLGGPSVFLFPPKPKDTLMISRTPEVTCVVEDVSHEDPEVKFNWYVDGVEVHNAKTKPREEQYNSTYRVVSVLPVLHQDWLNGKEYKCKVSNKALPAPIEKTISKAKGQPREPQVYTLPPSRDELTKNQVSLTCLVKGFYPSDIVVEWESNGQPENNYKTTPPVLDSDGSFFLYSKLTVDKSRWQQGTVFSCSVMHEALHNHYTQKSLSLSPGK
A) 2.4
